# System: Rattus norvegicus
# EXPERIMENTAL_PROTOCOL: Antiinflammatory activity in albino Wistar rat assessed as inhibition of carrageenan-induced hind paw edema at 0.05 mmol/kg, po administered 1 hr prior to carrageenan challenge measured after 5 hrs by plethysmometric analysis relative to control
# Assay type: functional
Active and inactive are the calls of the source. The calls are words filed in the database; no cut-off is given here.
Outcome codes: 1.0 for active, 0.0 for inactive

COMPOUND_SMILES | GROUP
COc1ccc(-n2cc(Cn3c(=O)oc4ccccc43)nn2)cc1 | 1.0
O=c1oc2ccccc2n1Cc1cn(-c2cccc([N+](=O)[O-])c2)nn1 | 0.0
CCOc1ccc(-n2cc(Cn3c(=O)oc4ccccc43)nn2)cc1 | 1.0
O=c1oc2ccccc2n1Cc1cn(-c2cccnc2)nn1 | 1.0
